System: U251 CNS
assayProcedure: NCI-60 one-dose screen, 48 h
measurementContext: 10 µM unless noted
About 83,000 compounds went through this panel and 20% of them were active in at least one assay; those are over-represented in the sample as a whole. Activity calls are given as the source filed them. Rule for the calls: active = growth percent below 10; inactive = the rest.
Outcomes you can answer with include only these: y (active), n (inactive)

Sample answers from the record:
COc1cc(NCCCCCN=C(N)N)c2ncccc2c1 = n
Cc1cc(CCl)c(C)cc1CCl = n
N#C[Se]CCCNS(=O)(=O)C1CC2C=CC1C2 (stereo unspecified) = y
C[C@@H]1CC[C@@H]2[C@@H]1[C@H](OC(=O)/C=C/C1CCCCC1)[C@]1(C3CCCCC3)C[C@@H](OC(=O)CO)[C@@]2(C)O1 = n
S=P(NC1CCCCC1)(N1CC1)N1CC1 = n

Incoming: Tell me the assay call for N#C[Se]CCN1C(=O)C2C(C1=O)[C@H]1C=C[C@@H]2S1 (stereo partly specified) please.
Outgoing: y

Incoming: Tell me the assay call for CN1C(=O)NC(=O)C(N=Nc2ccc(Cl)cc2)C1=O (stereo unspecified) please.
Outgoing: n

Incoming: Tell me the assay call for `CO[C@@H](c1ccccc1Cl)[C@H](C)OC(N)=O` please.
Outgoing: n

Incoming: Tell me the assay call for `CC1(C)N=C(N)N=C(N)N1c1ccc(OCCCCNC(=O)c2ccc(S(=O)(=O)F)cc2)c(Cl)c1` please.
Outgoing: n

Incoming: Tell me the assay call for c1ccc([As]=[As]c2ccccc2)cc1 (stereo unspecified) please.
Outgoing: y

Incoming: Tell me the assay call for `C=CCC1(CC)C(=O)NC(=S)NC1=O` please.
Outgoing: n

====

Below: a set of entries, each annotated with reported growth.
Test system: HL-60(TB) leukemia
assayProcedure: NCI-60 one-dose screen, 48 h (100 = growth as untreated, 0 = no growth, -100 = all killed)
measurementContext: 10 µM unless noted
Compounds without any hit were thinned out: in the full panel of roughly 83,000, 20% have a hit. Active and inactive are the calls of the source. The calls were made as follows: active = growth percent below 10; inactive = the rest.

C/C(=N\Nc1ccc(Cl)cn1)c1ccccn1 = -27.4% (active)
COc1cc(C2C3=C(COC3=O)N(CCO)c3cc4c(cc32)OCCO4)cc(OC)c1O (stereo not given) = -9% (active)
COc1cc(-c2c(C#N)c(-c3cccs3)nc3c2c(-c2ccccc2)nn3-c2ccccc2)ccc1O = 99.3% (inactive)

Proceed to the following item.
get_value(item= `C/C(=N\NC(=O)c1ccccc1N)c1ccccc1O` , readout=growth) returns 40.8% (inactive)

====

System: HL-60(TB) leukemia
assayProcedure: NCI-60 one-dose screen, 48 h (100 = growth as untreated, 0 = no growth, -100 = all killed)
measurementContext: 10 µM unless noted
Compounds without any hit were thinned out: in the full panel of roughly 83,000, 20% have a hit.
readout: growth (%)
Just the number in %, nothing appended.

CCOP(=O)(O)OP(=O)(O)OCC = 94.1
COc1cc(CNS(=O)(=O)c2ccc(C)cc2)ccc1OCc1cn(-c2ccc(F)cc2)nn1 = 114
Nc1c(Cl)cc(N=Nc2ccccc2)cc1Cl = 97.4
CC(C)C[C@H](C(=O)O)N(C)C(=O)[C@@H]1CCCN1C(=O)[C@H](C)OC(=O)[C@H](CCC(N)=O)NC(=O)[C@@H]1CCC(=O)N1 = 85.8
O=C(c1nc2ccccc2[nH]1)C1C(c2cccc([N+](=O)[O-])c2)C2CC3CCCCC3N2[C@@]12C(=O)Nc1cc(Cl)ccc12 (stereo not given in full) = 4.05

get_value(item= `O=C(/C(=C/c1ccc([N+](=O)[O-])cc1)c1ccccc1)c1ccccc1` , readout=growth) returns 16.9

get_value(item= `COc1ccc(-c2cc(-c3ccc(Cl)cc3)nc(SCCCCCCC(=O)NO)n2)cc1` , readout=growth) returns -18.2

get_value(item= Cc1ccc2[nH]c(=O)c3c(c2c1)Oc1ncn2nc(-c4ccco4)nc2c1C3c1ccc(Cl)cc1 (stereo not given) , readout=growth) returns 96.8

get_value(item= `[2H]C([2H])([2H])Oc1ccc(F)cc1/C=C/C(=O)/C=C(O)/C=C/c1cc(F)ccc1OC([2H])([2H])[2H]` , readout=growth) returns 77.3

get_value(item= `COc1cc2nc(N3CCCC3)nc(NCC3CCCCC3)c2cc1OC` , readout=growth) returns -57.2

get_value(item= `CNC(=O)c1c(I)c(NC(C)=O)c(I)c(C(=O)O)c1I` , readout=growth) returns 122

get_value(item= COC(=O)[C@H](Cc1ccc(O)cc1)NC(=O)[C@@H](OC)[C@@H]1Cc2cc3cc(OC4CC(OC5CC(O)C(O)C(C)O5)C(O)C(C)O4)c(C)c(O)c3c(O)c2C(=O)[C@H]1OC1CC(OC2CC(OC3CC(C)(O)C(O)C(C)O3)C(O)C(C)O2)C(O)C(C)O1 (stereo not given in full) , readout=growth) returns 8.2

get_value(item= `C=C1C(=O)O[C@H]2[C@H]1CC/C(CNC(=O)/C=C/c1ccccc1)=C\CC[C@@]1(C)O[C@@H]21` , readout=growth) returns -31.3

get_value(item= O=C1OCC2=C1C(c1ccccc1)c1cc3c(cc1N2CCO)OCCO3 (stereo not given) , readout=growth) returns -14.1

get_value(item= `COc1ccc(/C=C/C(=O)/C=C/c2cc3ccccc3[nH]c2=O)cc1` , readout=growth) returns 62.9

get_value(item= `O=C(Nc1ccc(OCc2nnc(-c3ccc(Cl)cc3)o2)c(F)c1)Nc1ccc(Cl)c(C(F)(F)F)c1` , readout=growth) returns -18.5
